# ASSAY PROCEDURE: CMV toxicity assay: tritiated leucine (3H-Leu) assay in HFF cells
# Assay type: cell-based
# RUN CONDITIONS: HFF cells (human foreskin fibroblast); read-out: CYTOTOXICITY 3H-LEU ASSAY IC50
I'd appreciate it if you could supply CC50 values for the items below.

Recorded CC50 for COc1ccc(OCCCOCn2c(=O)c(C(OC(C)=O)OC(C)=O)c(OC(C)=O)c3ccccc32)c(Cl)c1 , please? 50 µg/mL

Try this molecule next: CC(=O)Oc1c(C(OC(C)=O)OC(C)=O)c(=O)n(Cc2ccccc2)c2ccccc12 28 µg/mL

Recorded values, source patent US5382572A.
